- Target Or System: human ether-à-go-go-related gene (hERG) potassium channel (human, UniProt Q12809)
- Sequence (Q12809 whole entry, looked up): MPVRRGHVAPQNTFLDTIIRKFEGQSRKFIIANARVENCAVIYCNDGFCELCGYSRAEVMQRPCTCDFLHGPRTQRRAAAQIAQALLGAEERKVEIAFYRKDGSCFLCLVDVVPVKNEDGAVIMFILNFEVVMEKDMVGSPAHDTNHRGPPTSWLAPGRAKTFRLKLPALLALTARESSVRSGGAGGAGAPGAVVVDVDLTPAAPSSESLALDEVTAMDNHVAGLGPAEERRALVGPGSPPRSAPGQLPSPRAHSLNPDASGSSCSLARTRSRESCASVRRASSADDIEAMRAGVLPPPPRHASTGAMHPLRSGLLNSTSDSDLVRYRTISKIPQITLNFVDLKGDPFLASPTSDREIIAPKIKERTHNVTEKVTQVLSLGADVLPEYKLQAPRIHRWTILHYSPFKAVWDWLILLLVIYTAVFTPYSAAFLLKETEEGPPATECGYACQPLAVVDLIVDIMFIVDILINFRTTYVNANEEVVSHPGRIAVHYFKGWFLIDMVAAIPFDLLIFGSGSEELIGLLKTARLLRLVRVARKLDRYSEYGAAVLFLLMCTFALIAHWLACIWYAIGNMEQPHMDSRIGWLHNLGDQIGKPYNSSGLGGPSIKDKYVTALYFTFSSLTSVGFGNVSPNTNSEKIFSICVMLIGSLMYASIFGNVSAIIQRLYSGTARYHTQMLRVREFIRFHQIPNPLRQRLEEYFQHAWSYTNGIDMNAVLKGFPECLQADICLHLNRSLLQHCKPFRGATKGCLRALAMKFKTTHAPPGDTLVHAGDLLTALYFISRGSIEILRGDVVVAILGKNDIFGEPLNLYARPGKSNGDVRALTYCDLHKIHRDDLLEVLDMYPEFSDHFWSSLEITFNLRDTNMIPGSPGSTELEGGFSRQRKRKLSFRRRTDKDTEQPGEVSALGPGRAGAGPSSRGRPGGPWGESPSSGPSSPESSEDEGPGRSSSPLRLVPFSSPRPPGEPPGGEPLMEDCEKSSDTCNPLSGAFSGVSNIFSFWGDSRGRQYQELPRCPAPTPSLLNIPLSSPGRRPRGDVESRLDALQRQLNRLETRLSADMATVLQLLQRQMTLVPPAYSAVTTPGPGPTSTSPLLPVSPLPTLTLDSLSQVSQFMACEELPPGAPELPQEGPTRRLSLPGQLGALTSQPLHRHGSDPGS
- Test Description: primary screen, population patch clamp on CHO cells stably expressing hERG; higher = less effect of the substance
The whole screen tested about 310,000 compounds, of which about 2,200 (0.71%) showed an effect of 50% or more. The effect is printed as a negative number. This excerpt belongs to a sample that is enriched for strong results.
The molecules listed here are annotated with their hERG current change (%, negative = inhibition) at 1uM.
Measured Endpoint: hERG current change (%, negative = inhibition) at 1uM (%)

CS(=O)(=O)N1CCc2cc(-c3csc(NC(=O)Cc4cccs4)n3)ccc21 ... -5
COc1cc(C(=O)Nc2ccc3nc4n(c(=O)c3c2)CCCCC4)cc(OC)c1OC ... -1.94
Cc1ccc(S(=O)(=O)N2CCCC(C(=O)NNCC(=O)Nc3cc(F)ccc3F)C2)cc1 (stereo not drawn) ... -0.56
Cc1onc(-c2ccccc2)c1-c1ccnn1C(=O)NC(C)C ... 6.54
Cc1ccc(N2C(=O)N(CC(=O)Nc3ccc(C)cc3C)C(=O)C2C)cc1 (stereo not drawn) ... 7.69
CC1CCN(C(=O)C2CCN(CCCc3ccccc3)CC2)CC1.O=C(O)C(=O)O ... -23.5
O=C(Nc1ccc(F)cc1)N(Cc1cccs1)Cc1cc2cc3c(cc2[nH]c1=O)OCO3 ... 16.6
CC1(C)Oc2ccc3ccc(=O)oc3c2C(N2CCCCC2)C1O (stereo not drawn) ... 0.376
COc1ccnc2c1c(=O)n(Cc1cccc(F)c1)c(=O)n2C ... 8.91
COc1ccc2[nH]c3c(=O)n(CCN4CCOCC4)cnc3c2c1 ... 9.44
COC(=O)c1ccc(S(=O)(=O)NCCSc2nnc3c4ccccc4n(C)c3n2)cc1 ... 1.09
COc1cccc(N2CCN(C(=O)Cn3c(=O)oc4ccccc43)CC2)c1 ... 4.28
CCCCN(C)C(=O)C1CCN(Cc2ccccn2)CC1.O=C(O)C(=O)O ... 6.35
CC(C)(C)OC(=O)NCCCCCc1nnc(SCc2ccc(F)cc2)o1 ... 3.71
CCN(CC)C(=O)C1CCN(Cc2ccc(OCc3ccccc3)cc2)CC1.O=C(O)C(=O)O ... -13.3
CC(NC(=O)c1ccc2c(c1)OCCO2)c1ccc(S(N)(=O)=O)cc1 (stereo not drawn) ... -3.42
CC1CCCCC1NC(=O)CCNS(=O)(=O)c1ccc(Cl)cc1 (stereo not drawn) ... 7.29
COCCn1c(SCC(=O)c2c(N)n(C3CC3)c(=O)[nH]c2=O)nnc1-c1ccc(Cl)cc1 ... 13.5
CCCCNC(=O)C1CCN(C/C(C)=C/c2ccccc2)CC1.O=C(O)C(=O)O ... -33.9
COCCOC(=O)C1=C(N)Oc2c(c(=O)oc3ccccc23)[C@@]12C(=O)Nc1ccccc12 ... 12.1
CCCCN(CC)CCCNC(=O)c1cn(-c2ccc(OC)cc2)c(=O)c2ccccc12 ... -7.85
CCCCN(C)C(=O)C1CCN(Cc2cccnc2)CC1 ... 10.1
CN(C)C(=S)Nc1ccc(Br)cc1Cl ... 7.39
COc1ccc(Cl)cc1C(=O)Nc1ccc2nc3n(c(=O)c2c1)CCCC3 ... -51.8
CCN(CCCC(=O)c1ccc(F)cc1)CCc1ccccc1.Cl ... -86.5
CCN(Cc1ccccc1)C(=O)C1CCN(C/C(C)=C/c2ccccc2)CC1.O=C(O)C(=O)O ... -31
Cc1cccn2c(=O)c3cc(S(=O)(=O)c4ccc(Br)cc4)c(=N)n(C4CCCC4)c3nc12 ... 14.5
CCCCN(C)C(=O)C1CCN(Cc2ccc(OCc3ccccc3)cc2)CC1.O=C(O)C(=O)O ... -55.7
O=C(CCCc1ccccc1)c1ccccc1 ... 19.4
COc1ccc2c(c1)[nH]c1c(=O)n(CCN3CCCC3)cnc12 ... -17.4
CSCC[C@H](NC(=O)c1ccc(Cl)c(S(=O)(=O)N2CCCC2)c1)c1nc2ccccc2[nH]1 ... -1.71
Cc1ccn2c(=O)nc(SCC(=O)N3CCCCCC3)nc2c1 ... 19.6
Cc1ccc(C)c(NC(=O)COC(=O)CNC(=O)c2ccccc2Cl)c1 ... 9.98
CNC(=S)N(CCc1c(C)[nH]c2ccc(C)cc12)Cc1ccco1 ... -2.69
Cc1cc(C(=O)N2CCCC(N3CCN(c4cccc(Cl)c4)CC3)C2)no1 (stereo not drawn) ... 10.5
COc1ccccc1-c1noc(CSc2nc(C)cc(=O)[nH]2)n1 ... 19.4
CC(=O)N1C[C@H](O)C[C@H]1C(=O)O ... -19
O=C(O)c1cc(-c2ccc(N3CCOCC3)cc2)nn1-c1ccc(F)cc1F ... 12.7
CCCCN(C)C(=O)C1CCN(Cc2cccc(OCc3ccccc3)c2)CC1.O=C(O)C(=O)O ... -35.6
